- Test system: ATP;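 also: ATP exposure 15 min at 22 °C before imaging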
- protocolNotes: switch fluorescence ratio, 500 uM ATP over buffer (Cy3 cluster intensity, sum of 5 cycles each) (fold (ratio)); higher = stronger signal-on switching upon ATP binding; sequences stand for … in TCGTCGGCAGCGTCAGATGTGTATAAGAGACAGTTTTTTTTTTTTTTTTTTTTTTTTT…TC
- settings: aptamer strand: ATP DNA aptamer (quencher-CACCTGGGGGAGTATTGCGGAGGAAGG + anchor), 100 nM annealed; ATP concentration: 500 uM
measurementType: switch fluorescence ratio
In your answer, state the number alone without any accompanying words.

Consider the following illustrative entries.
# sequence, switch fluorescence ratio
measured = [
    ("CAAGTCTATG", 0.973),
    ("GCGTTTAGTA", 0.992),
    ("AAGTTGGGAG", 1),
    ("TGGTCTTCGT", 0.992),
    ("CGTGAGGGGT", 0.994),
]

Moving on to the next sequence.
Incoming: // lookup switch fluorescence ratio | system=ATP | key= "TTGTTAGTCT"
Outgoing: 0.982
